system: human acetyl-CoA carboxylase 2 (ACC2) (Homo sapiens)
Construct: The cDNA encoding amino acids 144 to 2458 of human acetyl-CoA carboxylase 2; made in house; host or cells: Sf9 insect cells (baculovirus, pFastBac1)
Sequence (O00763 144-2458): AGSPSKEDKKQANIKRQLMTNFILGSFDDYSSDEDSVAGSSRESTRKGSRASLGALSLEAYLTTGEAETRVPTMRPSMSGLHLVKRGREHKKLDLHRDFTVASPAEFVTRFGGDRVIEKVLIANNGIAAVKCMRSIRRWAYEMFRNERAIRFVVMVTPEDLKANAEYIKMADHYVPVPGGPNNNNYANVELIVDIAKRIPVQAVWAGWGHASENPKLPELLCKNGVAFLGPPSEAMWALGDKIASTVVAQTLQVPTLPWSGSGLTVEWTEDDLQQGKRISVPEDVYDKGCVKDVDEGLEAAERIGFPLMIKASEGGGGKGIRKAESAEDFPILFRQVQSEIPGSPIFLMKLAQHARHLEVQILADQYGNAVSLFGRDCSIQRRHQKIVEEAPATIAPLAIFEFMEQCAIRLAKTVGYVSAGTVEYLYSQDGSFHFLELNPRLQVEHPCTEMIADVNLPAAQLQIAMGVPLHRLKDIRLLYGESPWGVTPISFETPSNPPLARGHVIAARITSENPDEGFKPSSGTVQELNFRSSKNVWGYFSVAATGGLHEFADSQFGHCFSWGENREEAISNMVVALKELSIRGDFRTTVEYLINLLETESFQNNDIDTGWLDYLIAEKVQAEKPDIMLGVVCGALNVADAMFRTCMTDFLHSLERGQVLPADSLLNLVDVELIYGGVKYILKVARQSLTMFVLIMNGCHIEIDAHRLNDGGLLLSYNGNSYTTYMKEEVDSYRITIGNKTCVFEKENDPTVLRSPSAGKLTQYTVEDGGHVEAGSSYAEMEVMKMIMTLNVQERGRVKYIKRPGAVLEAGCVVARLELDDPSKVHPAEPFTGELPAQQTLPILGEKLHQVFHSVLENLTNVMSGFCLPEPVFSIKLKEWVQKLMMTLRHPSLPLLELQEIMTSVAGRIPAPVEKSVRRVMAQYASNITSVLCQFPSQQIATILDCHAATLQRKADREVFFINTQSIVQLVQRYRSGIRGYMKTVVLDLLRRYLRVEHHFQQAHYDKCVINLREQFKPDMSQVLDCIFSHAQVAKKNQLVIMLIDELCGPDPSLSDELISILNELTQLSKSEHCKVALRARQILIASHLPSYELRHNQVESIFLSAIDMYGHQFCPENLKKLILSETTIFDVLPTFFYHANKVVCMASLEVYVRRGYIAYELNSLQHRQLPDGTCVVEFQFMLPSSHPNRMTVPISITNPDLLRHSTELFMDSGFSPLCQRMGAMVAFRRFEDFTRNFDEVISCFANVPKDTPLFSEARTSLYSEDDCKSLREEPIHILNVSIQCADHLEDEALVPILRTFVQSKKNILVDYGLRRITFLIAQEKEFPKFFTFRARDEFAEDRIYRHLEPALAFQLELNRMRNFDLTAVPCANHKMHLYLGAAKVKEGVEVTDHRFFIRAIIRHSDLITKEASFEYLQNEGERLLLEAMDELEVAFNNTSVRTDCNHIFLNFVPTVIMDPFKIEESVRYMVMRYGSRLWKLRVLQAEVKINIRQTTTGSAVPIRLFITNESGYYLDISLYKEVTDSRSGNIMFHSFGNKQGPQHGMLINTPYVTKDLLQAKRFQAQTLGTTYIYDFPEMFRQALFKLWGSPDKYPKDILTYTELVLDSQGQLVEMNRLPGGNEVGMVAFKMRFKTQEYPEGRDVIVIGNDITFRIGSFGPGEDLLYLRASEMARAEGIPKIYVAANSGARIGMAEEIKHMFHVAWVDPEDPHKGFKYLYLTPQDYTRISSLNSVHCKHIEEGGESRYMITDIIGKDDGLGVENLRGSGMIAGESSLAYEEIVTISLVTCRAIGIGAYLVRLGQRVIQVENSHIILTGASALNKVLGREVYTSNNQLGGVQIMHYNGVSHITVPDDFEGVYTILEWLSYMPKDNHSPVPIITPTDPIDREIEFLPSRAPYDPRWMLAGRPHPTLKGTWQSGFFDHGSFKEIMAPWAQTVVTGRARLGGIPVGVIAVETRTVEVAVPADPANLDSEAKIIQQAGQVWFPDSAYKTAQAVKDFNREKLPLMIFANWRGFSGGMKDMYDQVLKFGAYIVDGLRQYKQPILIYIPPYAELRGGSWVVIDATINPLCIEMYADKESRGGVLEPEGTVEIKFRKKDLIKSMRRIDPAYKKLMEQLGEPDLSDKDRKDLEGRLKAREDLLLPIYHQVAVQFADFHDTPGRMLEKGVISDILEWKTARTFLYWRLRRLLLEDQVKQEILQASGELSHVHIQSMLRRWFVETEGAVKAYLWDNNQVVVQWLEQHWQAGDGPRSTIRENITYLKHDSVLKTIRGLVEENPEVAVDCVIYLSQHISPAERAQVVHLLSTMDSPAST
assay-comment: Acetyl-CoA carboxylase enzyme assay (malonyl-CoA formation by LC/MS/MS)
Assay type: biochemical
stated-conditions: recombinant human ACC2 (aa 144-2458); read-out: IC50 ACC2
Range-based classes on measured IC50: class 1: < 40 nM; class 2: ≥ 40 nM and < 300 nM; class 3: ≥ 300 nM

* CC(C)(C)c1nnc([C@H]2CC[C@H](NS(=O)(=O)c3ccc4[nH]c(Nc5cccnc5)nc4c3)CC2)o1 [Example 654] | class 2
* C[C@@H](NC(=O)[C@H]1CC[C@H](NS(=O)(=O)c2cnc3c(c2)N(C2CC2)CCN3C)CC1)c1ccc(F)cc1 [Example 132] | class 2
* [2H]C([2H])([2H])N1CCOc2ccc(S(=O)(=O)N[C@H]3CC[C@H](C(=O)N[C@H](C)c4ccc(F)cc4)CC3)cc21 [Example 158] | class 1
* Cc1cc(C(=O)O)ccc1-c1cc2ccc(S(=O)(=O)N[C@H]3CC[C@H](C(=O)N[C@H](C)c4ccc(F)cc4)CC3)cc2[nH]1 [Example 301] | class 1
* C[C@@H](NC(=O)[C@H]1CC[C@H](NS(=O)(=O)c2ccc3cc(C4CC4)[nH]c3c2)CC1)c1ccccn1 [Example 294] | class 2
* CC(C)c1nnc(-c2ccc(NS(=O)(=O)c3ccc4[nH]c(-c5ccc(N6CCN(C)CC6)cc5)nc4c3)cc2)o1 [Example 590] | class 3
* COCCN(C(=O)[C@H]1CC[C@H](NS(=O)(=O)c2ccc3[nH]c(-c4ccccc4)nc3c2)CC1)C1CCCCC1 [Example 676] | class 1
* O=C([C@H]1CC[C@H](NS(=O)(=O)c2cnc3ccccc3c2)CC1)N1CCNC[C@@H]1c1ccccc1 [Example 85] | class 2
* C[C@@H](NC(=O)[C@H]1CC[C@H](NS(=O)(=O)c2ccc3c(c2)OCO3)CC1)c1ccc(F)cc1 [Example 661] | class 3
* CC(C)OC(=O)[C@H]1CC[C@H](NS(=O)(=O)c2ccc3[nH]c(-c4ccc(N5CCN(C)CC5)cc4)nc3c2)CC1 [Example 557] | class 1
* C[C@@H](NC(=O)[C@H]1CC[C@H](NS(=O)(=O)c2ccc3nc(N4CCNC5(CC5)C4)ccc3c2)CC1)c1ccc(F)cc1 [Example 237] | class 2
* C[C@@H](NC(=O)[C@H]1CC[C@H](NS(=O)(=O)c2cnc3ccccc3c2)CC1)c1ccccc1C(F)(F)F [Example 46] | class 3
* Cn1c(-c2ccccc2)cc2ccc(S(=O)(=O)N[C@H]3CC[C@H](C(=O)N4CCC[C@H](C(C)(C)O)C4)CC3)cc21 [Example 404] | class 1
* COc1ccc(-c2nc3ccc(S(=O)(=O)N[C@H]4CC[C@H](C(=O)OCc5ccccc5)CC4)cc3[nH]2)cc1 [Example 100] | class 3
* CC(C)OC(=O)c1ccc(NS(=O)(=O)c2ccc3[nH]c(Nc4ccc(Cl)cc4)nc3c2)cc1 [Example 529] | class 3
* Cc1nc2cc(S(=O)(=O)N[C@H]3CC[C@H](C(=O)N[C@H](C)c4ccc(F)cc4)CC3)ccc2n1C [Example 5] | class 2
* Cn1c(C2CC2)cc2ccc(S(=O)(=O)N[C@H]3CC[C@H](C(=O)N[C@@H](c4ccccc4)C(C)(C)O)CC3)cc21 [Example 355] | class 1
* COC(=O)c1ccc(-c2nc3cc(S(=O)(=O)N[C@H]4CC[C@H](C(=O)N[C@H](C)c5ccccc5)CC4)ccc3[nH]2)cc1 [Example 275] | class 1
* Cn1c(C2CC2)cc2ccc(S(=O)(=O)N[C@H]3CC[C@H](C(=O)N4CCOC[C@@H]4C4CC4)CC3)cc21 [Example 458] | class 1
* CC(C)OC(=O)c1ccc(NS(=O)(=O)c2ccc3[nH]c(-c4ccc(CN5CCN(C)CC5)cc4)nc3c2)cc1 [Example 561] | class 3
* Cn1c(-c2ccccc2)c(Cl)c2ccc(S(=O)(=O)N[C@H]3CC[C@H](C(=O)N4CCN[C@H](C(F)(F)F)C4)CC3)cc21 [Example 21] | class 1
* COC(=O)CCc1ccc(-c2cc3ccc(S(=O)(=O)N[C@H]4CC[C@H](C(=O)N5CCCCC5)CC4)cc3n2C)cc1 [Example 357] | class 2
* C[C@@H](NC(=O)[C@H]1CC[C@H](NS(=O)(=O)c2ccc3nc(OCC(F)(F)F)ccc3c2)CC1)c1ccc(F)cc1 [Example 50] | class 3
* C[C@@H](NC(=O)[C@H]1CC[C@H](NS(=O)(=O)c2ccc3nc(N4CCNC(C(F)(F)F)C4)ccc3c2)CC1)c1ccc(F)cc1 (some centres unmarked) [Example 248] | class 2

###

system: human acetyl-CoA carboxylase 2 (ACC2) (Homo sapiens)
Construct: The cDNA encoding amino acids 144 to 2458 of human acetyl-CoA carboxylase 2; made in house; host or cells: Sf9 insect cells (baculovirus, pFastBac1)
assay-comment: Acetyl-CoA carboxylase enzyme assay (malonyl-CoA formation by LC/MS/MS)
Format: biochemical
stated-conditions: recombinant human ACC2 (aa 144-2458); read-out: IC50 ACC2
pIC50: −log10 of the molar value.
Label scheme for pIC50: lower than 7 is Not met, 7 and above is Met.

- C[C@@H](NC(=O)[C@H]1CC[C@H](NS(=O)(=O)c2ccc3c(c2)C(NC(=O)C(F)(F)F)CCN3)CC1)c1ccc(F)cc1 (some centres unmarked) [Example 185]: Not met
- C[C@@H](NC(=O)[C@H]1CC[C@H](NS(=O)(=O)c2ccc3nc(OC4COC4)ccc3c2)CC1)c1ccccn1 [Example 83]: Not met
- COCc1ccc(-c2cc3ccc(S(=O)(=O)N[C@H]4CC[C@H](C(=O)N5CCOC[C@@H]5C(C)C)CC4)cc3n2C)cc1 [Example 438]: Met
- Cc1cc(-c2ccc3cc(S(=O)(=O)N[C@H]4CC[C@H](C(=O)N5CCOC[C@@H]5C(C)C)CC4)ccc3n2)cc(C)n1 [Example 261]: Not met
- COC[C@@H](NC(=O)[C@H]1CC[C@H](NS(=O)(=O)c2ccc3c(ccn3C)c2)CC1)c1ccccc1 [Example 674]: Not met
- CC(C)CCC(=O)N1CCNc2ncc(S(=O)(=O)N[C@H]3CC[C@H](C(=O)N[C@H](C)c4ccc(F)cc4)CC3)cc21 [Example 220]: Not met
- O=C(N[C@@H](c1ccccc1)C(F)(F)F)[C@H]1CC[C@H](NS(=O)(=O)c2ccc3[nH]c(-c4ccccc4)nc3c2)CC1 [Example 274]: Not met
- C[C@H]1COCCN1C(=O)[C@H]1CC[C@H](NS(=O)(=O)c2ccc3cc(-c4ccccc4)[nH]c3c2)CC1 [Example 462]: Met
- C[C@@H](NC(=O)[C@H]1CC[C@H](NS(=O)(=O)c2ccc3[nH]c(-c4cccnc4)cc3c2)CC1)c1ccc(F)cc1 [Example 285]: Met
- COc1ccc(-c2cc3ccc(S(=O)(=O)N[C@H]4CC[C@H](C(=O)N[C@@H](CO)C5CC5)CC4)cc3n2C)cc1 [Example 445]: Met
- O=C(OCc1ccccc1)[C@H]1CC[C@H](NS(=O)(=O)c2ccc3nc(-c4ccccc4)[nH]c3c2)CC1 [Example 99]: Not met
- C[C@@H]1CN(C(=O)[C@H]2CC[C@H](NS(=O)(=O)c3ccc4[nH]c(-c5ccccc5)nc4c3)CC2)C[C@H](C)O1 [Example 664]: Met
- C[C@H]1CN(C)CCN1C(=O)[C@H]1CC[C@H](NS(=O)(=O)c2ccc3cc(-c4ccccc4)n(C)c3c2)CC1 [Example 412]: Not met
- C[C@@H](NC(=O)[C@H]1CC[C@H](NS(=O)(=O)c2ccc3[nH]c([C@H]4CCCO4)nc3c2)CC1)c1ccc(F)cc1 [Example 117]: Not met
- Cn1c(-c2ccccc2)cc2cc(S(=O)(=O)N[C@H]3CC[C@H](C(=O)N[C@H](CC(=O)O)c4ccccc4)CC3)ccc21 [Example 95]: Met
- Cn1c(-c2ccccc2)c(Cl)c2ccc(S(=O)(=O)N[C@H]3CC[C@H](C(=O)N4CCCCC4)CC3)cc21 [Example 374]: Met
- O=C(NC1(c2ccccc2)CC1)[C@H]1CC[C@H](NS(=O)(=O)c2ccc3[nH]c(-c4ccccc4)nc3c2)CC1 [Example 581]: Not met
- C[C@@H](NC(=O)[C@H]1CC[C@H](NS(=O)(=O)c2ccc3ncsc3c2)CC1)c1ccc(F)cc1 [Example 113]: Not met

###

system: human acetyl-CoA carboxylase 2 (ACC2) (Homo sapiens)
Construct: The cDNA encoding amino acids 144 to 2458 of human acetyl-CoA carboxylase 2; made in house; host or cells: Sf9 insect cells (baculovirus, pFastBac1)
assay-comment: Acetyl-CoA carboxylase enzyme assay (malonyl-CoA formation by LC/MS/MS)
Type: biochemical
stated-conditions: recombinant human ACC2 (aa 144-2458); read-out: IC50 ACC2
quantity-kind: IC50 (nM)

• CC(C)(O)[C@@H](NC(=O)[C@H]1CC[C@H](NS(=O)(=O)c2ccc3ccccc3c2)CC1)c1ccccc1 = 10
• C[C@@H](NC(=O)[C@H]1CC[C@H](NS(=O)(=O)c2cccc3nc(-c4ccccc4)cn23)CC1)c1ccc(F)cc1 = 149
• CC(C)c1nnc([C@H]2CC[C@H](NS(=O)(=O)c3ccc4[nH]c(Nc5ccc(N6CCN(C)CC6)cc5)nc4c3)CC2)o1 = 88
• CCc1ccc2cc(S(=O)(=O)N[C@H]3CC[C@H](C(=O)N[C@H](C)c4ccc(F)cc4)CC3)ccc2n1 = 160
